Consider the following sequences; for each one, report its apparent Kd.
test system: MS2 coat protein; assay: apparent Kd, MS2 coat protein; higher = weaker binding; RNA-MaP array; details: ligand present: flavin mononucleotide; designed as: ON switch for flavin mononucleotide
Respond with the bare value in nM.

Briefly, apparent Kd measured for AUAAACUAACAUGAGGAUCACCCAUGUAUGGAGAAAAUACCUAGAAGGAGGAUAUUUACAACAUCCAAGGAUAUAGGAGCCUCA : 42.4

apparent Kd recorded for this sequence, GGGGGUUGGACAGGAUAUAGAGGUCUCGUGUGGAGAUGCACAACGACAUGAGGAUCACCCAUGUGCUAGAAGGGUCUGCGAUAG , is 16.1

For record CCAGGGCGAAACAUGAGGAUCACCCAUGUCCUAGCAACGAUGAGAAGGGUAAACACAAUGUCUUUACAGGAUAUCAACCAUACG the listed apparent Kd is 7.6

For this sequence ( UCUCAAAUAAAUAUCAUACAUGAGGAUCACCCAUGUCACCGAUAGGAUAUGCGCGUUUCCCACCUGCAGAAGGAUCAAACUGUA ), measured apparent Kd is 13.4

The recorded apparent Kd for AAACAUACGUGAGGAUAUCCCGUUUGAGAGGCUAGUAUCAUCGAAACAUGAGGAUCACCCAUGUCGGAGAAGGCACUACAGGAG is 6.6

Short answer for CAAUGAACAUGAGGAUCACCCAUGUAGUAAUGCGAGAAAACGAAGGAUAUAGCGAUACUACAUAGCAAGAAGGUCGCAAACAUA : apparent Kd was 30.7

Form: sequence = UUUAGACCUCAACAUGAGGAUCACCCAUGUAAAUCUCUAUCGAGAAGGAAGGAAGGAACCUUGUCUUAGGAUAUCGACAAUUUC ; apparent Kd = 71.7

# apparent Kd of CGAAUCAACCGGCAGGAUAUGAAAACUAAAACAUGAGGAUCACCCAUGUCGGACAAGAACAUGAUACAGAAGGGCCACGUAACAAG = 26.3

// UUUAGACGGCAGAAGGCGGGCUCGCGCGGUGUACAUGAGGAUCACCCAUGUGUUUGCCAUCUACCCGAGGAUAUGCAGUGAUGG : apparent Kd value = 13.2

Lab note: CAGAGCCAAAACAAGGAUAUACAUAACAUUACAUGAGGAUCACCCAUGUUAUAGCUAACCUUGUAGUAGAAGGUGUUUGGCAACAU gave apparent Kd of 6.39

Looking up GAGAGAAAGCCAGGAUAUUAGAACUAGGCACAUGAGGAUCACCCAUGUGGUGAUGAUCAUAAGACUAAGAAGGGGCACCGGAUU , I found its apparent Kd recorded as 450

Documented apparent Kd of CUAAAACAUGAGGAUCACCCAUGUCAUUUAACUCAAGGAUAUAGAUCUGAGAGCUCAGCGCUAGAAGGUGAUUUUG : 40.3

Please fill in: apparent Kd reported for CCAGUGGGUGGAGGAUAUGAUGACAAACUGUGUUCAGAAGGCCACCUCAAGACACGAACAUGAGGAUCACCCAUGUCCCAACCU = 15.8

Sure, the documented apparent Kd for AAACAAAUGCAAGGAUAUCAUAAUACAAACAGGAGAGAAGGUGCAGAGCACAUGAGGAUCACCCAUGUCCUAGGAUAUUCCUAA is 80.4

###

tested on: MS2 coat protein; assay: apparent Kd, MS2 coat protein; higher = weaker binding; RNA-MaP array; FMN 200 µM where present; settings: ligand present: flavin mononucleotide; designed as: ON switch for flavin mononucleotide
Each entry gets false if its apparent Kd stays under 0.05 µM, and true if its apparent Kd is 0.05 µM or above.

Q) Textbook exercise: given the entry AGUAACAUGCUCAACAUGAGGAUCACCCAUGUACUCUCUUGUAAGGAUAUACAAUCGUAUUGAUAGUAGAAGGUACCAAUUAAG , state whether its apparent Kd is greater than or equal to 0.05 µM.
A) true

Q) Confirm if apparent Kd reported for the sequence GUAGCAUACCAAGGAUAUUCAUAUAAUAAGUAAACAUGAGGAUCACCCAUGUAGUGAGAGCCUUGGGAGAAGGUGGAAUGCUAC is 0.05 µM or above.
A) false

Q) apparent Kd >= 0.05 µM for ACAUUCUUUCGAGGAUAUCGGUGAUUAAUUUUACGAGAAGGCGAUUUAAGAUAUAAUAUUUUAGACAUGAGGAUCACCCAUGUA ?
A) false

Q) Hello, I need to know if AAUAUACAUGAGGAUCACCCAUGUUUUGGUGCAUGAGGAUAUAAAAACAAUUACAUAAAGUUAGAAGGCAUGAAUA has measured apparent Kd not below 0.05 µM. Thanks!
A) false

Q) Determine whether this sequence has apparent Kd no lower than 0.05 µM: GUACAGCGACAUGAGGAUCACCCAUGUAGCCGCCGAUCGUCGCAGGAUAUGGCAAAGGUUAACAGUCAGAAGGGUGAUGUUCGA
A) false

Q) Item UAAUCUCAGAUAGGAUAUAUAGGAUAACUUAAGACCUAACAUGAGGAUCACCCAUGUGAUUAUUCGUAGAAGGAUCAUUGAACU with apparent Kd of 0.05 µM or above?
A) true

Q) Given the entry UUUAUAAAUUAGAAGGCGAGAUGAAUUACAAUAGACAUGAGGAUCACCCAUGUGUAUUCAUGUCUUGAGGAUAUAGUCAUAUAU , answer whether its apparent Kd meets or surpasses 0.05 µM.
A) true

Q) Would you say UCCAAAUCGUAGAAGGGUGACAUGAGGAUCACCCAUGUGCAGCAGCCGUGAAUGGCCAUGCUGCCACAGGAUAUACGAUGGAGU shows apparent Kd at minimum 0.05 µM?
A) false

Q) Quick check: does UUUAAUCGAAACAUGAGGAUCACCCAUGUGUUGUAAUUAACAUAGGAUAUUUGUAUACUUUUGUAAGAGAAGGAUGAUAAUACU have apparent Kd greater than or equal to 0.05 µM?
A) false

Q) apparent Kd >= 0.05 µM for GUAGCUACUAUUAUACAUGAGGAUCACCCAUGUUACAUGGGUAAGGAUAUUGAAGUUAUUAUUAUCAAGAAGGUACUAUGCUAC ?
A) true

Q) Textbook exercise: given the entry ACACAUGAGGAUCACCCAUGUACUCGACACAUUCAUUGGGCACAGGAUAUACGGUGAAGUCUUUCGUAGAAGGGUGCUAGUGUG , state whether its apparent Kd is greater than or equal to 0.05 µM.
A) false

Q) Quick check: does UGGUAUUAGGGAGGAUAUGGGAAGAUACAUGAGGAUCACCCAUGUUUAAGAAUGCCGAGAGGCAACUAGAAGGCCCUAGUACCU have apparent Kd greater than or equal to 0.05 µM?
A) false

Q) Please indicate if the recorded apparent Kd for CGCUGUCAUGCAGGAUAUGCAUUGGAUUACAAUGCAGAAGGGCGAUUACAUGAGGAUCACCCAUGUGUAGACAGUGAACAAGAG meets or exceeds 0.05 µM.
A) false

Q) Could you tell me if the measured apparent Kd of CCGGAAACGGGUAGCCUGACAUGAGGAUCACCCAUGUGAUCCUAGGAUAUGGAUCCUAAUUGGAUCCAGAAGGAGGUUGGCUAC reaches 0.05 µM or more?
A) true
